pKd: −log10 of the molar value.
// TNFα trimer (Homo sapiens, UniProt P01375) pKd records

Cc1nc2cc(F)c(-c3cnc(OCCCCCNC(=O)CC[C@H](NC(=O)c4ccc(NCc5cnc6nc(N)nc(O)c6n5)cc4)C(=O)O)nc3)nc2c(N[C@H](C)c2cc(C#N)ccc2F)c1Cl [Compound I-13] = > 7.00
Nc1nc(O)c2nc(CNc3ccc(C(=O)N[C@@H](CCC(=O)NCCOCCOCCOCCOCc4cn(CCCCCOc5ccc(-c6ccc7nc(COc8cccc(N9CCCC9=O)c8)n(Cc8ccccc8OC(F)F)c7c6)cn5)nn4)C(=O)O)cc3)cnc2n1 [Compound I-25] = > 7.00
Cc1nc2ccc(-c3ccc(N4CCN(CCOCCn5cc(COCCOCCOCCOCCNC(=O)CC[C@H](NC(=O)c6ccc(NCc7cnc8nc(N)nc(O)c8n7)cc6)C(=O)O)nn5)CC4)nc3)cn2c1Cc1ccccc1OC(F)F (racemic) [Compound I-22] = > 5.30

Could you now consider this next compound?
Fill in the blank: the reported pKd of Cc1nc2cc(F)c(-c3cnc(OCCCCCn4cc(COCCNC(=O)CC[C@H](NC(=O)c5ccc(NCc6cnc7nc(N)nc(O)c7n6)cc5)C(=O)O)nn4)nc3)nc2c(N[C@H](C)c2cc(C#N)ccc2F)c1Cl [Compound I-15] is ____.
> 7.00

====

Target: folate receptor beta (Homo sapiens (Human))
Sequence (P14207 17-255): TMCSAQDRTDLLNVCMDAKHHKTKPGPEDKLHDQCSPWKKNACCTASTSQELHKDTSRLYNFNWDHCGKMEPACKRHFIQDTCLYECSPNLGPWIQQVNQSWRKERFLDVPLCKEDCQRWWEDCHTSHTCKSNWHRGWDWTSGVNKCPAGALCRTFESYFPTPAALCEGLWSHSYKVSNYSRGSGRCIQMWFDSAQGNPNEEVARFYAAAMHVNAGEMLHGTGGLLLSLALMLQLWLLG
Test: Folate receptor binding assay (fluorescence polarization)
Details: 2.5 nM folate receptor beta, 2 nM FR-Cy probe, 2 hr incubation; read-out: FOLR2-FP
Entries and their pIC50
Keep in mind that pIC50 stands for -log10 of concentration in molar terms.

Cc1nc2cc(F)c(-c3cnc(N4CCN(C(=O)COCCn5cc(COCCOCCOCCOCCNC(=O)CC[C@H](NC(=O)c6ccc(NCc7cnc8nc(N)nc(O)c8n7)cc6)C(=O)O)nn5)CC4)nc3)nc2c(N[C@H](C)c2cc(C#N)ccc2F)c1Cl [Compound I-45] = 8.38

Could you now consider this next compound?
Fill in the blank: the reported pIC50 of Cc1nc2cc(F)c(-c3cnc(N4CCN(C(=O)COCCOCCOCCOCCOCCOCCn5cc(CC[C@H](NC(=O)c6ccc(N(C)Cc7ccc8nc(N)[nH]c(=O)c8c7)cc6)C(=O)O)nn5)CC4)nc3)nc2c(N[C@H](C)c2cc(C#N)ccc2F)c1Cl [Compound I-85] is ____.
7.92

====

Biological target: TNFα and streptavidin immobilized FOL2R (Homo sapiens (Human), UniProt P01375+P14207)
Sequence (P01375 77-233, one chain of several): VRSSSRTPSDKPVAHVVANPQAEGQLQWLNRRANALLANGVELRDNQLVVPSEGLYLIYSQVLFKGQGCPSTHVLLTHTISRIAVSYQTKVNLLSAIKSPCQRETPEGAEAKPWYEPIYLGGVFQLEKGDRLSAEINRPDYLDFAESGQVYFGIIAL
Experiment: Ternary complex SPR assay
Format: binding
Conditions: 150 nM untagged TNF, 10 nM compound; max response normalized to expected response
Entries and their TC 150 nM- tagless TNF Normalized
The answer is to be given in %; state only the numeric part.

Solved cases below.
Cc1nc2cc(F)c(-c3cnc(N4CCN(C(=O)COCCn5cc(CN(CCO)CCOCCOCCOCCNC(=O)CC[C@H](NC(=O)c6ccc(NCc7cnc8nc(N)nc(O)c8n7)cc6)C(=O)O)nn5)CC4)nc3)nc2c(N[C@H](C)c2cc(C#N)ccc2F)c1Cl [Compound I-93] = 16.1
Cc1nc2cc(F)c(-c3cnc(N4CCN(C(=O)COCCn5cc(CN(C)CCOCCOCCOCCNC(=O)CC[C@H](NC(=O)c6ccc(NCc7cnc8nc(N)nc(O)c8n7)cc6)C(=O)O)nn5)CC4)nc3)nc2c(N[C@H](C)c2cc(C#N)ccc2F)c1Cl [Compound I-94] = 16.3
Cc1nc2cc(F)c(-c3cnc(N4CCN(C(=O)COCCOCCOCCOCCOCCOCCn5cc(CC[C@H](NC(=O)c6ccc(OCc7ccc8nc(N)nc(O)c8c7)cc6)C(=O)O)nn5)CC4)nc3)nc2c(N[C@H](C)c2cc(C#N)ccc2F)c1Cl [Compound I-87] = 25.7

Fill in the blank: the reported TC 150 nM- tagless TNF Normalized of Cc1nc2cc(F)c(-c3cnc(N4CCN(C(=O)COCCOCCN5CCC6(CC5)CCN(C(=O)CC[C@H](NC(=O)c5ccc(NCc7cnc8nc(N)nc(O)c8n7)cc5)C(=O)O)CC6)CC4)nc3)nc2c(N[C@H](C)c2cc(C#N)ccc2F)c1Cl [Compound I-84] is ____.
17.4

Cited source for all entries: patent US20250127913A1
